Target: CYP6P3 (Anopheles gambiae)
Sequence (Q8T632 1-509): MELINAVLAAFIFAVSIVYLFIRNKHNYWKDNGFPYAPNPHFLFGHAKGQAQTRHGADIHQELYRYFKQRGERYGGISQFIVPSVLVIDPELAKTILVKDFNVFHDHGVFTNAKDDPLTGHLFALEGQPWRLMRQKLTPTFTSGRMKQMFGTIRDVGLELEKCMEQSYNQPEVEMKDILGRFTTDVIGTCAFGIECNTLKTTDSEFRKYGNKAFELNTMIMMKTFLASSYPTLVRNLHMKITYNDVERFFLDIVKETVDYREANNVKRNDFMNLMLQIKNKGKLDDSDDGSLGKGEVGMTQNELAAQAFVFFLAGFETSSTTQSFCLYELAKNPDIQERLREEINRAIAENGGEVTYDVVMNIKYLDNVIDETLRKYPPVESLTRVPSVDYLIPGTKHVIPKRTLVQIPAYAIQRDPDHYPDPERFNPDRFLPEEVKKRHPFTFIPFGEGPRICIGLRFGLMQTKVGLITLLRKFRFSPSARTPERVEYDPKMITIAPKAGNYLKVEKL
Sequence (Q86QH5 1-679 partner): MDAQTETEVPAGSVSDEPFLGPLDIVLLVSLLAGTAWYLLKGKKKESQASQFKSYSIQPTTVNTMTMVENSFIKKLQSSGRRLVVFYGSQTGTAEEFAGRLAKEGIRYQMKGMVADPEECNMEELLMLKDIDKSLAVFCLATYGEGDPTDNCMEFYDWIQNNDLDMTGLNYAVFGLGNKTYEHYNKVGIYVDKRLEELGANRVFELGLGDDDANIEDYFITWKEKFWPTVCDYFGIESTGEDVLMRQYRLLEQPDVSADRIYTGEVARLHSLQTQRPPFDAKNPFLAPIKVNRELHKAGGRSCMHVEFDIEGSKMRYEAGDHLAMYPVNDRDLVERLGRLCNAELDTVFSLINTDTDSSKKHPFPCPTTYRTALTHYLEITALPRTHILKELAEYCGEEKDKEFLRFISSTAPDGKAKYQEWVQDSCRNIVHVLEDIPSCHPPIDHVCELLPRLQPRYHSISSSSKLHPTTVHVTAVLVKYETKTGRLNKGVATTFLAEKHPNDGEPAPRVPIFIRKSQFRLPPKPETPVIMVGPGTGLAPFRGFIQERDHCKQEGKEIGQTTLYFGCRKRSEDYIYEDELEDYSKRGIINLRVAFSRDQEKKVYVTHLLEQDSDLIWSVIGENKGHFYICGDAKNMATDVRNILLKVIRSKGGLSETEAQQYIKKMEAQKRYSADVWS
Sequence (Q86QH4 1-128 partner): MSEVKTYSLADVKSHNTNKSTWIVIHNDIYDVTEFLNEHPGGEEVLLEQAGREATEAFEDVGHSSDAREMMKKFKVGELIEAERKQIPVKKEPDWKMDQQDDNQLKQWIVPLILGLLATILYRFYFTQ
Experiment: Reciprocal IC50 of CYP6P3 metabolism of PPF and permethrin
Format: biochemical
measure_name: pIC50
In simple prose, pIC50 is minus the logarithm base ten of a concentration in moles per litre.

- molecule: "CC1(C)C(C=C(Cl)Cl)C1C(=O)OCc1cccc(Oc2ccccc2)c1 (mixture of isomers) [Permethrin]"
  pIC50: 4.21

Read the next record carefully.
Let me check: CC(COc1ccc(Oc2ccccc2)cc1)Oc1ccccn1 (centres unmarked) [PPF, pyriproxyfen] , system CYP6P3 (Anopheles gambiae), measured pIC50 is 4.03

* * *

// values below are reported pIC50
Target: CYP6P3 (Anopheles gambiae)
Test: biochemical
In simple prose, pIC50 is minus the logarithm base ten of a concentration in moles per litre.

Use these answered entries as a reference point.
- compound: "CC1(C)[C@H](C(=O)O[C@H](C#N)c2cccc(Oc3ccccc3)c2)[C@@H]1C=C(Br)Br"
  pIC50: 5.50
- compound: "CC(COc1ccc(Oc2ccccc2)cc1)Oc1ccccn1 (stereo not drawn)"
  pIC50: 4.80

Query CC1(C)C(C=C(Cl)Cl)C1C(=O)OCc1cccc(Oc2ccccc2)c1 (mixture of isomers) yields pIC50 of 5.17
